Quick reference: IC50 neutralization, 1 hour virus/Ab incubation of the listed items.
Target: aMLV Env (aMLV)
Assay: cell-based or functional assay
endpoint.label: IC50 neutralization, 1 hour virus/Ab incubation

[
  {
    "binder": "1443_C16 (PG16) (TCN-116) (antibody, V domains shown) VH: QEQLVESGGGVVQPGGSLRLSCLASGFTFHKYGMHWVRQAPGKGLEWVALISDDGMRKYHSDSMWGRVTISRDNSKNTLYLQFSSLKVEDTAMFFCAREAGGPIWHDDVKYYDFNDGYYNYHYMDVWGKGTTVTVSS VL: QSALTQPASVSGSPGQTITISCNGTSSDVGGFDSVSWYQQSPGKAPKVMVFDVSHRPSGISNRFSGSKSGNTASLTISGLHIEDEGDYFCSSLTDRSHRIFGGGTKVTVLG",
    "recorded.measurement": "> 50 µg/mL"
  },
  {
    "binder": "1496_C09 (PG9) (TCN-109) (antibody, V domains shown) VH: QRLVESGGGVVQPGSSLRLSCAASGFDFSRQGMHWVRQAPGQGLEWVAFIKYDGSEKYHADSVWGRLSISRDNSKDTLYLQMNSLRVEDTATYFCVREAGGPDYRNGYNYYDFYDGYYNYHYMDVWGKGTTVTVSS VL: QSALTQPASVSGSPGQSITISCNGTSNDVGGYESVSWYQQHPGKAPKVVIYDVSKRPSGVSNRFSGSKSGNTASLTISGLQAEDEGDYYCKSLTSTRRRVFGTGTKLTVLG",
    "recorded.measurement": "> 50 µg/mL"
  },
  {
    "binder": "1495_C14 (PGC14) (antibody, human IgG1, lambda, V domains shown) VH: DGHLVQSGVEVKKTGATVKISCKVSGYSFIDYYLHWVQRAPGKGLEWVGLIDPENGEARYAEKFQGRVTIIADTSIDTGYMEMRSLKSEDTAVYFCAAGAVGADSGSWFDPWGQGTLVTVSS VL: SYELTQPPSVSVSPGQTASITCSGSKLGDKYVSWYQLRPGQSPILVMYENDRRPSGIPERFSGSNSGDTATLTISGTQALDEADFYCQAWETTTTTFVFFGGGTQLTVLG",
    "recorded.measurement": "> 50 µg/mL"
  },
  {
    "binder": "1460_G14 (PGG14) (antibody, human IgG1, kappa, V domains shown) VH: QVLLVQSGTEVKKPGSSVKVSCQASGGAFSSYAFSWVRQAPGQGLEWMGMITPVFGETKYAPRFQGRLTLTAEESLSTTYMELRSLTSDDTAFYYCTRDRRVVPMATDNWLDPWGQGTLVTVSS VL: DIQLTQSPSSLSASVGDRVTVTCRASQTIHTYLNWYQQIPGKAPKLLIYGASTLQSGVPSRFSGSGSGTDFTLTINSLQPEDFATYYCQQSYSTPRTFGQGTRLDIKR",
    "recorded.measurement": "> 50 µg/mL"
  },
  {
    "binder": "1456_P20 (PG20) (antibody, human IgG1, kappa, V domains shown) VH: QVRLVQSGPEVKKPGSSVTVSCQASGGTFSSYAFTWVRQAPGQGLEWLGMVTPIFGEAKYSQRFEGRVTITADESTSTTSIELRGLTSEDTAIYYCARDRRAVPIATDNWLDPWGQGTLVTVSS VL: DIQLTQSPSSLSASVGDRVSITCRASQTINNYLNWYQQTPGKAPKLLIYGASNLQNGVPSRFSGSGSGTDFTLTISSLQPEDFATYYCQQSFSTPRTFGQGTRLDIKR",
    "recorded.measurement": "> 50 µg/mL"
  }
]
